test: Inhibition of LsrK expressed in Escherichia coli JW5503 harboring plasmid pET-Plsrlux assessed as reduction in autoinducer2-mediated quorum sensing activation by luminescence method
Hi! Just check whether IC50 is below 1000 nM. Below gives met, equal or above gives not met.

Consider the worked cases shown below.
{"molecule_smiles": "O=C(O)C(=O)Nc1nc2ccc(NC(=O)c3cc(Br)c(Br)[nH]3)cc2s1", "assigned_label": "met"}
{"molecule_smiles": "O=C(O)C(=O)Nc1ccc2nc(N(Cc3ccccc3)C(=O)c3cc(Br)c(Br)[nH]3)sc2c1", "assigned_label": "not met"}
{"molecule_smiles": "O=C(Nc1ccc(C2=N[C@@H](C(=O)O)CO2)cc1)c1cc(Br)c(Br)[nH]1", "assigned_label": "not met"}
{"molecule_smiles": "O=C(O)C(=O)N[C@H]1CCc2nc(NC(=O)c3cc(Br)c(Br)[nH]3)sc2C1", "assigned_label": "not met"}

Now turn to the next molecule.
Prompt: Dear reviewer, please state whether `O=C(O)CC(=O)Nc1ccc2nc(N(Cc3ccccc3)C(=O)c3cc(Br)c(Br)[nH]3)sc2c1` has IC50 strictly beneath 1000 nM.
Completion: met

###

assay: Inhibition of LsrK expressed in Escherichia coli LW7 pLW11 harboring assessed as reduction in autoinducer2-mediated quorum sensing by measuring beta-galactosidase expression by luminescence method
quantity_measured: IC50 (µM)
One number for each entry, in µM.

Prompt: Give its IC50 value. Item: `O=C1C=CC(=C(c2ccc(O)cc2)c2ccc(O)cc2)C=C1`
Completion: 14

###

assay: Inhibition of Salmonella typhimurium LsrK expressed in Escherichia coli MET1158 incubated for 30 mins followed by DPD and ATP addition and measured after 15 mins by kinase-glo max luminescent assay; design: species or system Salmonella enterica subsp. enterica serovar Typhimurium
quantity_measured: IC50 (nM)
Numbers only, in nM.

Answered examples (3):
{"compound": "O=C(O)C1=CC(=C(c2ccc(O)c(C(=O)O)c2)c2ccc(O)c(C(=O)O)c2)C=CC1=O [AURINTRICARBOXYLIC ACID]", "IC50, nM": 1000}
{"compound": "CC1=C(O)C(=O)C=C2C1=CC=C1[C@@]2(C)CC[C@@]2(C)[C@@H]3C[C@](C)(C(=O)O)CC[C@]3(C)CC[C@]12C [CELASTROL]", "IC50, nM": 3000}
{"compound": "O=C1C=CC(=C(c2ccc(O)cc2)c2ccc(O)cc2)C=C1 [AURIN]", "IC50, nM": 1000}

Next item in the queue.
Prompt: Give its IC50 value. Item: COc1cc(C)c2c(c1C=O)Oc1c(c(C)c(O)c3c1C(O)OC3=O)OC2=O (centres undefined) [STICTIC ACID]
Completion: 3000

###

experiment: Inhibition of Salmonella typhimurium LsrK expressed in Escherichia coli MET1158 in presence of DPD by kinase-glo max luminescent assay; parameters: species or system Salmonella enterica subsp. enterica serovar Typhimurium
Please provide measured pIC50 for the entries that follow.
Give bare numbers, as −log10 of the molar value.

I'm hoping you can list pIC50 for every molecule here, please.
1. Cc1c(Cl)cccc1Nc1ccccc1C(=O)O [TOLFENAMIC ACID]
2. O=C(O)C(=O)Nc1nc2ccc(NC(=O)c3cc(Br)c(Br)[nH]3)cc2s1

Completion:
1: 4.15; 2: 4.74

I'm hoping you can list pIC50 for every molecule here, please.
1. O=C(O)C(=O)Nc1ccc2nc(N(Cc3ccccc3)C(=O)c3cc(Br)c(Br)[nH]3)sc2c1
2. O=C(O)c1ccc(Cl)cc1Nc1ccccc1
3. O=C(Nc1ccc(C2=N[C@@H](C(=O)O)CO2)cc1)c1cc(Br)c(Br)[nH]1
4. O=C(O)c1ccccc1Nc1cccc(Cl)c1
5. Cc1ccc(Cl)c(Nc2ccccc2C(=O)O)c1Cl [MECLOFENAMIC ACID]
6. O=C(O)c1c(Cl)c(Cl)c(Cl)c(Cl)c1Nc1cc(Cl)c(Cl)c(Cl)c1Cl

Completion:
4.74
4.52
4.11
3.92
3.75
4.92
